assay: Lethal dose in rats.; format: toxicity; details: rat, in vivo; read-out: LD50
Endpoint: LD50 (mg/kg)
Could you give me the number in mg/kg? Just the number is fine.

Ask: Recorded LD50 for CCc1cc(C(=O)N[C@@H](CC(F)C(=O)O)C(=O)O)ccc1NCc1cnc2nc(N)nc(N)c2n1 (stereo in doubt; form 1) , please?
Result: 20

Ask: Recorded LD50 for Cc1cc(C(=O)N[C@@H](CC(F)C(=O)O)C(=O)O)sc1N(C)Cc1cnc2nc(N)nc(N)c2n1 (stereo in doubt; form 2) , please?
Result: 46

Ask: Recorded LD50 for Nc1nc(N)c2nc(CNc3ccc(C(=O)N[C@@H](CC(F)C(=O)O)C(=O)O)cc3Br)cnc2n1 (stereo not given in full) , please?
Result: 20

Ask: Recorded LD50 for Nc1nc(N)c2nc(CNc3ccc(C(=O)N[C@@H](CC(F)C(=O)O)C(=O)O)cc3F)cnc2n1 (stereo not given in full) , please?
Result: 29

Ask: Recorded LD50 for CN(Cc1cnc2nc(N)nc(N)c2n1)c1ccc(C(=O)N[C@@H](CCC(=O)O)C(=O)O)cc1 [METHOTREXATE] , please?
Result: 0.82
